Conditions: human gut metagenome, 24 h, 2 µM; note: call rule not given here
readoutType: Bacterial Biotransformation

Here is how some compounds turned out for Bacterial Biotransformation.
{"compound": "O=C([O-])C[C@H](O)C[C@H](O)/C=C/c1c(C2CC2)nc2ccccc2c1-c1ccc(F)cc1.O=C([O-])C[C@H](O)C[C@H](O)/C=C/c1c(C2CC2)nc2ccccc2c1-c1ccc(F)cc1.[Ca+2] [PITAVASTATIN CALCIUM]", "testResult": "Compound metabolized"}
{"compound": "CN1CCN2c3ccccc3Cc3ccccc3C2C1 (stereo not drawn) [MIANSERIN]", "testResult": "Compound NOT metabolized"}
{"compound": "CN1CCC(=C2c3ccccc3CC(=O)c3sccc32)CC1.O=C(O)/C=C/C(=O)O [KETOTIFEN FUMARATE]", "testResult": "Compound NOT metabolized"}
{"compound": "CCOC(=O)C1=C(C)NC(C)=C(C(=O)OC)C1c1cccc([N+](=O)[O-])c1 (stereo not drawn) [NITRENDIPINE]", "testResult": "Compound metabolized"}
{"compound": "N=C(N)NC(=O)Cc1c(Cl)cccc1Cl [GUANFACINE]", "testResult": "Compound NOT metabolized"}
{"compound": "OC(c1cc(C(F)(F)F)nc2c(C(F)(F)F)cccc12)C1CCCCN1 (stereo not drawn) [MEFLOQUINE]", "testResult": "Compound metabolized"}
{"compound": "N[C@@H](Cc1ccc(N(CCCl)CCCl)cc1)C(=O)O", "testResult": "Compound NOT metabolized"}
{"compound": "Nc1nc(N)nc(-c2cc(Cl)ccc2Cl)n1.O=C(O)/C=C\\C(=O)O [IRSOGLADINE MALEATE]", "testResult": "Compound NOT metabolized"}
{"compound": "COc1ccccc1OCCNCC(O)COc1cccc2[nH]c3ccccc3c12 (stereo not drawn) [CARVEDILOL]", "testResult": "Compound NOT metabolized"}
{"compound": "CCCC(C)(COC(N)=O)COC(=O)NC(C)C (stereo not drawn) [CARISOPRODOL]", "testResult": "Compound metabolized"}

Next item in the queue.
INPUT: Output Bacterial Biotransformation of CN(C/C=C/C#CC(C)(C)C)Cc1cccc2ccccc12 [TERBINAFINE]
OUTPUT: Compound NOT metabolized

----------
Conditions: human gut metagenome, 24 h, 2 µM
readoutType: Bacterial Biotransformation

Here is how some compounds turned out for Bacterial Biotransformation.
{"compound": "COc1cc2nc(N3CCN(C(=O)C4COc5ccccc5O4)CC3)nc(N)c2cc1OC.CS(=O)(=O)O (stereo not drawn) [DOXAZOSIN MESYLATE]", "testResult": "Compound metabolized"}
{"compound": "C[N+]12CCC(CC1)C(OC(=O)C(O)(c1ccccc1)c1ccccc1)C2.[Br-] (stereo not drawn) [CLIDINIUM BROMIDE]", "testResult": "Compound metabolized"}
{"compound": "COC(=O)C(c1ccccc1)C1CCCCN1 (stereo not drawn) [METHYLPHENIDATE]", "testResult": "Compound metabolized"}
{"compound": "COC1=C(OC)C(=O)C(CCCCCCCCCCO)=C(C)C1=O [IDEBENONE]", "testResult": "Compound metabolized"}
{"compound": "CC12CC3CC(C)(C1)CC(N)(C3)C2 [MEMANTINE]", "testResult": "Compound NOT metabolized"}
{"compound": "N[C@@H](Cc1ccc(N(CCCl)CCCl)cc1)C(=O)O", "testResult": "Compound NOT metabolized"}
{"compound": "CC(C)(C)NCC(O)c1cc(Cl)c(N)c(Cl)c1 (stereo not drawn) [CLENBUTEROL]", "testResult": "Compound NOT metabolized"}
{"compound": "CCN(CC)CCNC(=O)c1ccc(NC(C)=O)cc1 [ACECAINIDE]", "testResult": "Compound metabolized"}

INPUT: Output Bacterial Biotransformation of CC#CCn1c(N2CCC[C@@H](N)C2)nc2c1c(=O)n(Cc1nc(C)c3ccccc3n1)c(=O)n2C [LINAGLIPTIN]
OUTPUT: Compound NOT metabolized

INPUT: Output Bacterial Biotransformation of Cc1ccccc1C(OCCN(C)C)c1ccccc1.O=C(O)CC(O)(CC(=O)O)C(=O)O (stereo not drawn) [ORPHENADRINE CITRATE]
OUTPUT: Compound metabolized

INPUT: Output Bacterial Biotransformation of CCOc1ccccc1OCCN[C@H](C)Cc1ccc(OC)c(S(N)(=O)=O)c1.Cl [TAMSULOSIN HYDROCHLORIDE]
OUTPUT: Compound metabolized

INPUT: Output Bacterial Biotransformation of CCCC(C)(COC(N)=O)COC(=O)NC(C)C (stereo not drawn) [CARISOPRODOL]
OUTPUT: Compound metabolized

INPUT: Output Bacterial Biotransformation of CN1CCC[C@@H]1CCO[C@](C)(c1ccccc1)c1ccc(Cl)cc1.O=C(O)/C=C/C(=O)O [CLEMASTINE FUMARATE]
OUTPUT: Compound metabolized

INPUT: Output Bacterial Biotransformation of CC(C)c1nc(N(C)S(C)(=O)=O)nc(-c2ccc(F)cc2)c1/C=C/[C@@H](O)C[C@@H](O)CC(=O)[O-].CC(C)c1nc(N(C)S(C)(=O)=O)nc(-c2ccc(F)cc2)c1/C=C/[C@@H](O)C[C@@H](O)CC(=O)[O-].[Ca+2] [ROSUVASTATIN CALCIUM]
OUTPUT: Compound metabolized

INPUT: Output Bacterial Biotransformation of CC(=O)O[C@H]1C(=O)[C@@]2(C)[C@H]([C@H](OC(=O)c3ccccc3)[C@]3(O)C[C@H](OC(=O)[C@H](O)[C@@H](NC(=O)c4ccccc4)c4ccccc4)C(C)=C1C3(C)C)[C@]1(OC(C)=O)CO[C@@H]1C[C@@H]2O [PACLITAXEL]
OUTPUT: Compound NOT metabolized

INPUT: Output Bacterial Biotransformation of COc1ccc2cc([C@H](C)C(=O)O)ccc2c1 [NAPROXEN]
OUTPUT: Compound metabolized

Attribution: ChEMBL document CHEMBL5724914
